- System: Human coronavirus OC43
- ASSAY_INFO: Antiviral activity against HCoV-OC43 infected in human NCI-H460 cells treated for 72 hrs by CPE inhibition assay
- Type: functional, organism-based
- RECORDED_CONDITIONS: Betacoronavirus 1, NCI-H460, 72 h
OBSERVATION_TYPE: pEC50
Schema: pEC50 number; meaning minus log10 of the concentration expressed in molar units.

For reference, reported pEC50 for COC(=O)c1cc(C#N)cc(Nc2ncnc3ccc(OC)cc23)c1 stands at 5.58

For reference, reported pEC50 for COc1ccc2ncnc(Nc3cc(C#N)cc(C(F)(F)F)c3)c2c1 stands at 6.32

For reference, reported pEC50 for COc1ccc2ncnc(Nc3cc(F)cc(OC(F)(F)F)c3)c2c1 stands at 5.00

For reference, reported pEC50 for CCC(CC)COC(=O)[C@H](C)N[P@](=O)(OC[C@H]1O[C@@](C#N)(c2ccc3c(N)ncnn23)[C@H](O)[C@@H]1O)Oc1ccccc1 [REMDESIVIR] stands at 6.85

For reference, reported pEC50 for Cc1ccc2ncnc(Nc3cc(C(F)(F)F)cc(C(F)(F)F)c3)c2c1 stands at 5.92

For reference, reported pEC50 for CCOc1ccc2nc(NC(Cc3ccccc3)C(=O)OC(C)(C)C)nc(Nc3cc(C(F)(F)F)cc(C(F)(F)F)c3)c2c1 (centres undefined) stands at 4.73

For reference, reported pEC50 for O=[N+]([O-])c1ccc2ncnc(Nc3cc(C(F)(F)F)cc(C(F)(F)F)c3)c2c1 stands at 6.54

For reference, reported pEC50 for CCOc1ccc2ncnc(Nc3cc(C(F)(F)F)cc(C(F)(F)F)c3)c2c1 stands at 6.16

For reference, reported pEC50 for CCCNc1nc(Nc2cc(C(F)(F)F)cc(C(F)(F)F)c2)c2cc(OCC)ccc2n1 stands at 6.16

----------
- ASSAY_INFO: Cytotoxicity in human NCI-H460 cells infected with HCoV-OC43 treated for 72 hrs by CPE inhibition assay
- Type: toxicity, cell-based
- RECORDED_CONDITIONS: read-out: TC50
Reported CC50 at 72 h values for a set of compounds
Give just the number in µM; leave the unit off.

Solved cases (3 shown):
# SMI, OBSERVATION_TYPE, MEASURED_NUMBER
data = [
    ("FC(F)(F)c1cc(Nc2ncnc3ccc(C(F)(F)F)cc23)cc(C(F)(F)F)c1", "CC50 at 72 h", 4.28),
    ("CCCOc1ccc2ncnc(Nc3cc(C(F)(F)F)cc(C(F)(F)F)c3)c2c1", "CC50 at 72 h", 388),
    ("COc1ccc2ncnc(N3CCN(c4cc(C(F)(F)F)cc(C(F)(F)F)c4)C(=O)C3)c2c1", "CC50 at 72 h", 240),
]

We next turn to a different compound, shown below.
For reference, reported CC50 at 72 h for COc1ccc2ncnc(Nc3cc(F)cc(C#N)c3)c2c1 stands at 388

----------
- Test system: Human coronavirus OC43
- ASSAY_INFO: Antiviral activity against HCoV-OC43 infected in human NCI-H460 cells treated for 72 hrs by CPE inhibition assay
- Assay type: functional, organism-based
- RECORDED_CONDITIONS: Betacoronavirus 1, NCI-H460, 72 h
pEC50: −log10 of the molar value.
OBSERVATION_TYPE: pEC50

# COMPOUND, RESULT
measured = [
    ("O=C(O)c1ccc(Nc2ncnc3ccc(Cl)cc23)c(Cl)c1", "< 4.65"),
    ("CCOc1ccc2nc(NC(C)CCCN(CC)CC)nc(Nc3cc(C(F)(F)F)cc(C(F)(F)F)c3)c2c1 (stereo not given)", "< 5.69"),
    ("CN1CCN(CCNc2ncnc3ccc(Cl)cc23)CC1", "< 4.18"),
]

For reference, reported pEC50 for O=[N+]([O-])c1ccc(Nc2ncnc3ccc(Cl)cc23)cc1Cl stands at < 5.61

For reference, reported pEC50 for COc1ccc2ncnc(Sc3cc(C(F)(F)F)cc(C(F)(F)F)c3)c2c1 stands at < 4.26
